Reference source for all entries: PubChem BioAssay AID330

System: P388 leukemia ip, CD2F1 mice, survival T/C
experiment_summary: NCI In Vivo Anticancer Drug Screen. Data for tumor model P388 Leukemia (intraperitoneal) in CD2F1 (CDF1) mice
reported_conditions: endpoint: median survival time; dose: 200.0 mg/kg/injection; schedule: Q01DX009 (ip); vehicle: saline; higher = longer survival
Description: The antitumor activity of compounds was measured in mice bearing transplantable tumors. Survival or tumor size were measured and the results are expressed as the measurement made in the treated group (T) divided by the measurement made in the vehicle treated control group (C). The tumor model used in this assay is P388 Leukemia (intraperitoneal) in CD2F1 (CDF1) mice
Inconclusive results and toxic doses are left out.
Below, each entry is listed alongside its reported T/C.

molecule: CCCCCCC(=O)/C=C/c1ccc(OC(=O)c2ccc(Cl)cc2)cc1
meas_value: 92 % of control
//
molecule: CCC(=O)NC(Cc1cccs1)C(=O)O (stereo not drawn)
meas_value: 91 % of control
//
molecule: Cc1cccc(NC(=O)NC2CCCC(C)C2)c1 (stereo not drawn)
meas_value: 91 % of control
//
molecule: O=CNCC(=O)O
meas_value: 99 % of control
//
molecule: CN(C1=NC1(C)C)c1ccccc1
meas_value: 91 % of control
//
molecule: [Na+]
meas_value: 98 % of control
//
molecule: O=c1[nH]c2ncccc2c(O)c1-c1ccccc1
meas_value: 96 % of control

Kindly consider the entry below.
Reported T/C, molecule CC(C)=CC1C(C(=O)OC23C=CC(CC2C)C3)C1(C)C (stereo not drawn) : ____
102 % of control

----------
Below, each entry is listed alongside its reported T/C.
System: P388 leukemia ip, CD2F1 mice, survival T/C
experiment_summary: NCI In Vivo Anticancer Drug Screen. Data for tumor model P388 Leukemia (intraperitoneal) in CD2F1 (CDF1) mice
reported_conditions: endpoint: median survival time; dose: 50.0 mg/kg/injection; schedule: Q01DX005 (ip); vehicle: saline; higher = longer survival
Toxic doses and inconclusive results are not listed.

molecule: C=C1CCCC2CCC[N+](C)(CC(=O)OCC)C12 (configuration not stated)
T/C: 93 % of control
//
molecule: CC(C)CC(C(=O)O)N(CC(=O)O)CC(=O)O (configuration not stated)
T/C: 98 % of control
//
molecule: O=S1(=O)CS(=O)(=O)OCCCCO1
T/C: 87 % of control
//
molecule: CCOC(=O)C(c1ccccc1)N(CCCN(CC)CC)c1ccccc1 (configuration not stated)
T/C: 101 % of control
//
molecule: O=c1[nH]c(=O)n(C2CC(O)C(CO)O2)cc1F (configuration not stated)
T/C: 114 % of control
//
molecule: CN(C)C1C(=O)C(C(=O)NCNC(C=O)C(O)C(O)C(O)CO)=C(O)C2(O)C(=O)C3=C(O)c4c(O)cccc4C(C)(O)C3CC12 (configuration not stated)
T/C: 100 % of control
//
molecule: S[C@@H]1CCCN1
T/C: 97 % of control
//
molecule: OCC1OC(Oc2ncccn2)C(O)C1O (configuration not stated)
T/C: 97 % of control
//
molecule: S=c1nc[nH]c2nc[nH]c12
T/C: 105 % of control
//
molecule: CCC1(CC)C(=O)NC(=O)NC1(OC)OC
T/C: 98 % of control

Reported T/C, molecule `Cc1csc(Cl)c1NC1=NCCN1` : ____
104 % of control

Reported T/C, molecule CCCCNC(=O)C(C)O (configuration not stated) : ____
101 % of control

----------
Tested on: P388 leukemia ip, CD2F1 mice, survival T/C
experiment_summary: NCI In Vivo Anticancer Drug Screen. Data for tumor model P388 Leukemia (intraperitoneal) in CD2F1 (CDF1) mice
reported_conditions: endpoint: median survival time; dose: 50.0 mg/kg/injection; schedule: Q01DX005 (ip); vehicle: Klucel (hydroxypropylcellulose) (HPC); higher = longer survival
Inconclusive results and toxic doses are left out.
Below, each entry is listed alongside its reported T/C.

Below are worked cases with known answers.
molecule: Cc1nc(Nc2ccc(F)cc2)c2c(C)c[nH]c2n1
T/C: 90 % of control
//
molecule: CN1CCC2(CC1)OCCO2
T/C: 100 % of control
//
molecule: COc1ccccc1[B-]12OCC[N+]1(CNC(=O)C1=C(O)C3(O)C(=O)C4=C(O)c5c(O)cccc5C(C)(O)C4CC3C(N(C)C)C1=O)CCO2 (stereo unspecified)
T/C: 105 % of control
//
molecule: Cc1ccc2c(c1)Nc1ccc(C)cc1C2(C)C
T/C: 104 % of control
//
molecule: Cc1cc([O-])c([I+]c2ccccc2)c(=O)[nH]1
T/C: 103 % of control

Test system P388 leukemia ip, CD2F1 mice, survival T/C; read-out T/C; what value for `Cc1nc(Cl)c2[nH]c(Cl)nc2n1` ?
102 % of control

Test system P388 leukemia ip, CD2F1 mice, survival T/C; read-out T/C; what value for COC1=CCC2C(=O)C=CC(=O)C2C1 (stereo unspecified) ?
101 % of control

Test system P388 leukemia ip, CD2F1 mice, survival T/C; read-out T/C; what value for `N#Cc1ccoc1` ?
104 % of control

Test system P388 leukemia ip, CD2F1 mice, survival T/C; read-out T/C; what value for CCC1C2CCCCN3C(C4CC(C)C(=O)O4)CC(C4C(C)C(=O)OC14)C23 (stereo unspecified) ?
101 % of control

Test system P388 leukemia ip, CD2F1 mice, survival T/C; read-out T/C; what value for `O=C1Oc2ccccc2C(=O)C1=Ic1ccccc1` ?
88 % of control

Test system P388 leukemia ip, CD2F1 mice, survival T/C; read-out T/C; what value for OC1=CC(=S)NC(c2ccccc2)C1 (stereo unspecified) ?
99 % of control

----------
System: P388 leukemia ip, CD2F1 mice, survival T/C
experiment_summary: NCI In Vivo Anticancer Drug Screen. Data for tumor model P388 Leukemia (intraperitoneal) in CD2F1 (CDF1) mice
reported_conditions: endpoint: median survival time; dose: 12.5 mg/kg/injection; schedule: Q01DX005 (ip); vehicle: saline with Tween-80; higher = longer survival
Inconclusive results and toxic doses are left out.
readout_type: T/C

compound: O=C1CN(c2cccc(C(F)(F)F)c2)C(=O)CN1/N=C/c1ccco1
T/C: 100 % of control
--
compound: CC1/C=C/C=C/CC/C=C/C=C/C=C/C=C/C(OC2OC(C)C(O)C(N)C2O)CC2OC(CC(O)C(O)CCC(O)CC(O)CC(O)CC(=O)OC(C)C(C)C1O)CC(O)C2C(=O)O (centres undefined)
T/C: 109 % of control
--
compound: CCN(CC)C(=S)n1nc(C)c(N=Nc2cccc(Cl)c2Cl)c1C
T/C: 97 % of control
--
compound: S=C(NCc1ccccc1)NNc1nnc(-c2ccccc2)c(-c2ccccc2)n1
T/C: 96 % of control
--
compound: C=CCC(CC)(C(=O)Nc1ccc2nc(C)cc(N)c2c1)C(=O)Nc1ccc2nc(C)cc(N)c2c1
T/C: 89 % of control
--
compound: C=COC(=O)C(Cc1ccccc1)NC(=O)OCc1ccccc1 (centres undefined)
T/C: 106 % of control

Kindly consider the entry below.
Test system P388 leukemia ip, CD2F1 mice, survival T/C; read-out T/C; what value for `COc1cc(NCCCCCNC(C)C)c2ncccc2c1` ?
103 % of control

----------
System: P388 leukemia ip, CD2F1 mice, survival T/C
experiment_summary: NCI In Vivo Anticancer Drug Screen. Data for tumor model P388 Leukemia (intraperitoneal) in CD2F1 (CDF1) mice
reported_conditions: endpoint: median survival time; dose: 50.0 mg/kg/injection; schedule: Q01DX009 (ip); vehicle: saline; higher = longer survival
Toxic doses and inconclusive results are not listed.
readout_type: T/C

Below are worked cases with known answers.
compound: O=C(Cc1cccc2c(=O)cc(-c3ccccc3)oc12)OCCN1CCOCC1
readout_type: T/C
meas_value: 99 % of control
//
compound: [Cl][Eu][Cl]
readout_type: T/C
meas_value: 87 % of control

Reported T/C, compound `CC(=O)N=C(N)N` : ____
103 % of control

Reported T/C, compound C#CC(C)(CC)OC(=O)c1ccccc1C(=O)O (stereo not drawn) : ____
100 % of control

Reported T/C, compound `CC(=O)Nc1ccc(N=Nc2c(O)c(S(=O)(=O)O)cc3cc(S(=O)(=O)O)ccc23)cc1` : ____
102 % of control

Reported T/C, compound `CCOCCC(=NC(C)(C)C)Nc1ccccc1C` : ____
107 % of control

Reported T/C, compound CCOC(=O)NCCCCC([NH-])C(=O)O.CCOC(=O)NCCCCC([NH-])C(=O)O.[Cu+2] (stereo not drawn) : ____
101 % of control

Reported T/C, compound `COc1cc2cc(=O)n(N)c(C)c2cc1OC` : ____
108 % of control

Reported T/C, compound CC1CC(C)NC(C)C1 (stereo not drawn) : ____
97 % of control

Reported T/C, compound CC(C)C1C(=O)NC(c2ccc(N)cc2)c2ccccc21 (stereo not drawn) : ____
105 % of control

Reported T/C, compound `CCCC(C(=O)OCCN(CC)CC)(c1ccccc1)c1ccccc1` : ____
91 % of control

Reported T/C, compound `O=C(O)CCc1cc(Br)no1` : ____
101 % of control

Reported T/C, compound `O=C(OC(c1ccccc1)c1ccccc1)c1ccccc1` : ____
99 % of control
